- System: Salmonella typhinurium
- procedure summary: microbe, parasite or virus in culture
- Assay type: cell-based, Salmonella typhimurium
- run parameters: Table 3, heart infusion agar, 37° C., 24 hours, read-out: MIC
recorded endpoint: MIC (µg/mL)
Respond numerically; units are µg/mL and should not be typed.

Consider the molecule shown here: CCCCCCCCCCCCCCNCCN1CCN=CCC(C)C1=O (stereo not shown) What is its recorded MIC?
3.12

Consider the molecule shown here: CCCCCCCCCCCCCCC(O)CNCCN1CCN=CCCC1=O (stereo not shown) What is its recorded MIC?
3.12

Consider the molecule shown here: `CCCCCCCCCCCCNCCN1CCN=C(C)CC1=O` What is its recorded MIC?
3.12

Consider the molecule shown here: `CCCCCCCCCCCCCCNCCN1CCN=CC(C)(C)C1=O` What is its recorded MIC?
1.56

Where these numbers come from: patent US4346087A
